- Tested on: deadnettle (henbit deadnettle, Lamium amplexicaule)
- testSummary: Test D controlled growth environment herbicide test, pre- and postemergence
- Type: in vivo
- details: Postemergence, 125 g ai/ha; visual rating on scale 0 (no effect) to 100 (complete control), 14 to 21 d
propertyName: Plant response rating, Deadnettle
Just the number, please.

compoundStructure | Plant response rating, Deadnettle
Cn1nc(Br)c(O)c(-c2cccc3ccccc23)c1=O | 55
Cc1nn(C)c(=O)c(-c2c(C)sc3ccc(Br)cc23)c1O | 45

Quick one: Plant response rating, Deadnettle for Cc1ccc2sc(C)c(-c3c(OC(=O)OC(C)C)c(C)nn(C)c3=O)c2c1 ?
35

Quick one: Plant response rating, Deadnettle for Cc1nn(C)c(=O)c(-c2cccc3ccc(Br)cc23)c1O ?
80

Quick one: Plant response rating, Deadnettle for Cc1nn(C)c(=O)c(-c2ccc(Br)c3ccccc23)c1O ?
95

* * *

- System: soybean (Glycine max)
- testSummary: Test C greenhouse herbicide test, pre- and postemergence
- Format: in vivo
- details: Preemergence, 250 g ai/ha; scale 0 to 100, 0 no effect, 100 complete control
propertyName: Soybean plant response rating

The cases that follow already have their Soybean plant response rating on record.
compoundStructure | Soybean plant response rating
COC(=O)Oc1c(OC)nn(C)c(=O)c1-c1c(C)ccc2ccccc12 | 20
CC(=O)Oc1c(C)nn(C)c(=O)c1-c1c(C)cc(C)c2ccccc12 | 20
CC(=O)Oc1c(C)nn(C)c(=O)c1-c1c(C)sc2ccc(Cl)cc12 | 0
CC(=O)Oc1c(Cl)nn(C)c(=O)c1-c1c(C)sc2ccc(Cl)cc12 | 5

Quick one: Soybean plant response rating for Cc1ccc2ccccc2c1-c1c(O)c(C(F)(F)F)nn(C)c1=O ?
5

* * *

- System: crabgrass, large (large crabgrass, Digitaria sanguinalis)
- testSummary: Test C greenhouse herbicide test, pre- and postemergence
- Assay type: in vivo
- details: Preemergence, 31 g ai/ha; scale 0 to 100, 0 is no effect, 100 is complete control
# binarize Plant response rating, Crabgrass, Large: threshold 10 inclusive, high side YES, low side NO

compound | label
CCCC(=O)Oc1c(C)nn(C)c(=O)c1-c1c(CC)sc2ccc(C)cc12 [Compound 107] | YES
CC(=O)Oc1c(C)nn(C)c(=O)c1-c1c(C)sc2ccc(Cl)cc12 [Compound 108] | NO

Textbook exercise: given the entry CCCC(=O)Oc1c(C)nn(C)c(=O)c1-c1c(C)sc2ccc(C)cc12 [Compound 105] , state whether its Plant response rating, Crabgrass, Large is greater than or equal to 10.
YES

* * *

Here, each record is paired with measured Plant response rating, Barnyardgrass data.
- System: barnyardgrass (Echinochloa crus-galli)
- testSummary: Test E greenhouse herbicide test, pre- and postemergence
- Type: in vivo
- details: 125 g ai/ha, Postemergence; scale 0 to 100 (0 no effect, 100 complete control)
- Text: […]
Just the number, please.

Quick one: Plant response rating, Barnyardgrass for Cc1cc(C)c2sc(C)c(-c3c(O)c(C)nn(C)c3=O)c2c1 ?
30

* * *

- Test system: foxtail, green (green foxtail, Setaria viridis)
- testSummary: Test D controlled growth environment herbicide test, pre- and postemergence
- Type: in vivo
- details: Postemergence, 31 g ai/ha; scale 0 to 100 (0 no effect, 100 complete control)
# binarize Foxtail, Green plant response rating: threshold 20 inclusive, high side yes, low side no

Previously resolved entries follow.
compoundStructure | label
Cn1nc(Br)c(O)c(-c2cccc3ccccc23)c1=O | no
Cc1nn(C)c(=O)c(-c2cccc3ccc(Br)cc23)c1O | no
Cc1cc2ccccc2c(-c2c(O)c(C)nn(C)c2=O)c1C | yes
Cc1nn(C)c(=O)c(-c2cccc3ccccc23)c1O | no

Continue with the compound presented below.
Textbook exercise: given the entry CCc1sc2c(C)cc(C)cc2c1-c1c(O)c(C)nn(C)c1=O , state whether its Foxtail, Green plant response rating is greater than or equal to 20.
yes

# credit: patent US10597388B2
